Experiment: qHTS of pediatric cancer cell lines to identify multiple opportunities for drug repurposing: Primary screen for U-2 OS cells (AID 1347096); also: nearly all actives have a fitted effect of over 50% in size
Settings: U-2 OS viability, CellTiter-Glo luminescence, 48 h; series mostly up to 46 µM
Procedure: Drug repurposing or repositioning has been offered as a strategy for drug development in oncology programs. […] [1] Shen, M et al. Quantitative high-throughput phenotypic screening of pediatric cancer cell lines identifies multiple opportunities for drug repurposing. […] Cells were assayed in growth media at a density of 500-1,000 cells/well. […] After a 15 min incubation at room temperature, samples were analyzed for luminescence intensity using a ViewLux High-throughput CCD imager equipped with clear filters.
Results filed as inconclusive are left out. The source made the active and inactive calls. Calls follow the shape of the dose curve; as a rule, active = well fitted cell-killing curve with a large enough effect; inconclusive = small, poorly fitted or top-dose-only effect; inactive = flat fitted curve, though single readings scatter.
Field 'call' accepts 1 = active, 0 = inactive

| compound | cat |
| --- | --- |
| C[N+](C)(C)CC(=O)O | 0 |
| CC(C)(C)Cn1c(N)nc2ccc(-c3[nH]c(C(C)(C)C)nc3-c3ccc(F)cc3)nc21 | 0 |
| CC(=O)OC1C(C)OC(Oc2c(-c3ccc(O)cc3)oc3cc(O)cc(O)c3c2=O)C(O)C1OC(C)=O (stereo unspecified) | 0 |
| O=C(CCN1CCN(C(=O)OCc2cc(Cl)cc(Cl)c2)CC1)c1ccc2[nH]c(=O)oc2c1 | 0 |
| O=C(O)c1ccc(-c2c[nH]c3ncc(-c4ccccc4)cc23)cc1C1CCCC1 | 0 |
| COc1ccc2c3c1OC1C[C@@H](O)C=C[C@@]31CCN(C)C2 (stereo partly specified) | 0 |

Q: Assay result, entry O=C1c2c(O)cc(O)cc2O[C@H](c2cc(O)c(O)c(O)c2)[C@H]1O — outcome?
Result: 0

Q: Each compound tested received a call. Report the one for Cc1nc(N)sc1-c1ccnc(Nc2ccc(N3CCOCC3)cc2)n1 .
Result: 1

Q: # fetch the recorded call for c1ccc2c(Cc3c[nH]c4ccccc34)c[nH]c2c1 here
Result: 0

Q: Recorded test call requested for CC(C)n1cnc2c(NCCCCCCNC(=O)OC(C)(C)C)nc(NCCO)nc21
Result: 0

Q: Any idea what this test logged for O=c1cc(-c2ccccc2)oc2cc(O)cc(O)c12 ?
Result: 0
